Where these numbers come from: patent US20230039851A1

Each entry below carries its reported Human Albumin (RLU).
TEST TARGET: T1, Human Serum Albumin (human, UniProt P02768 25-609)
T1 construct: ELISA: albumin coated on plates; pull-down: endogenous albumin in normal human serum; also called HSA; Human SA
T1 sequence (P02768 25-609 limits assumed): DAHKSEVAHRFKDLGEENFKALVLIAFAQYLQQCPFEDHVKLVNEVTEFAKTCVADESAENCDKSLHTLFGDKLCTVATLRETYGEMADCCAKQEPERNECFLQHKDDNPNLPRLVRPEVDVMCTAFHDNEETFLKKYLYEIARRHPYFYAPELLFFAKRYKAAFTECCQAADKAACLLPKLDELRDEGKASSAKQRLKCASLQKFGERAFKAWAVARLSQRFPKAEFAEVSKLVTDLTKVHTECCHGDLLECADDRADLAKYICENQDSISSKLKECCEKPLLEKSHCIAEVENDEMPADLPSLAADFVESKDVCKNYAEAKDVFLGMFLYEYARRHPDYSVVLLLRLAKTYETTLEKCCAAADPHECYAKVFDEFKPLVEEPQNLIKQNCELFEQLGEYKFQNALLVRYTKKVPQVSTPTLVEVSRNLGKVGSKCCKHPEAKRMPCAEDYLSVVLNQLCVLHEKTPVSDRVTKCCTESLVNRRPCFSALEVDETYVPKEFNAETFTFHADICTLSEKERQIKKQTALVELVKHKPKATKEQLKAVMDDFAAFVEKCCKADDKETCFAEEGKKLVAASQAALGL
ASSAY OVERVIEW: ELISA, 667 nM FN3 protein on immobilized human albumin
Experimental: The FN3 proteins were also tested in an ELISA assay to determine their ability to bind to immobilized human or cynomolgous albumin. The binding of 667 nM B7 and B7 variants to human or cynomolgous albumin are illustrated in Table 7. The negative control is wt Tencon.
Kindly provide the numeric value in RLU only, without the unit symbol.

Solved entries:
# BINDER, TEST READOUT, VALUE REPORTED
measured = [
    ("A10V, W47A (designed binder, Variant of B7; not shown: His tag: FN3 domains were purified as His-tagged proteins) MLPAPKNLVVSRVTEDSARLSWTAPDAAFDSFNIAYWEPGIGGEAIALRVPGSERSYDLTGLKPGTEYKVWIHGVKGGASSPPLIARFTT", "Human Albumin (RLU)", 2100),
    ("A10V, W71A (designed binder, Variant of B7; not shown: His tag: FN3 domains were purified as His-tagged proteins) MLPAPKNLVVSRVTEDSARLSWTAPDAAFDSFNIAYWEPGIGGEAIWLRVPGSERSYDLTGLKPGTEYKVAIHGVKGGASSPPLIARFTT", "Human Albumin (RLU)", 950),
    ("A10V, G42A (designed binder, Variant of B7; not shown: His tag: FN3 domains were purified as His-tagged proteins) MLPAPKNLVVSRVTEDSARLSWTAPDAAFDSFNIAYWEPGIAGEAIWLRVPGSERSYDLTGLKPGTEYKVWIHGVKGGASSPPLIARFTT", "Human Albumin (RLU)", 4480),
    ("A10V, N33A (designed binder, Variant of B7; not shown: His tag: FN3 domains were purified as His-tagged proteins) MLPAPKNLVVSRVTEDSARLSWTAPDAAFDSFAIAYWEPGIGGEAIWLRVPGSERSYDLTGLKPGTEYKVWIHGVKGGASSPPLIARFTT", "Human Albumin (RLU)", 2350),
]

What value of Human Albumin (RLU) has been recorded for this entry: A10V, R49A (designed binder, Variant of B7; not shown: His tag: FN3 domains were purified as His-tagged proteins) MLPAPKNLVVSRVTEDSARLSWTAPDAAFDSFNIAYWEPGIGGEAIWLAVPGSERSYDLTGLKPGTEYKVWIHGVKGGASSPPLIARFTT
1020

What value of Human Albumin (RLU) has been recorded for this entry: A10V, W37A (designed binder, Variant of B7; not shown: His tag: FN3 domains were purified as His-tagged proteins) MLPAPKNLVVSRVTEDSARLSWTAPDAAFDSFNIAYAEPGIGGEAIWLRVPGSERSYDLTGLKPGTEYKVWIHGVKGGASSPPLIARFTT
600

What value of Human Albumin (RLU) has been recorded for this entry: A10V, K69A (designed binder, Variant of B7; not shown: His tag: FN3 domains were purified as His-tagged proteins) MLPAPKNLVVSRVTEDSARLSWTAPDAAFDSFNIAYWEPGIGGEAIWLRVPGSERSYDLTGLKPGTEYAVWIHGVKGGASSPPLIARFTT
15900

What value of Human Albumin (RLU) has been recorded for this entry: A10V (designed binder, Variant of B7; also called B7 A10V; not shown: His tag: FN3 domains were purified as His-tagged proteins) MLPAPKNLVVSRVTEDSARLSWTAPDAAFDSFNIAYWEPGIGGEAIWLRVPGSERSYDLTGLKPGTEYKVWIHGVKGGASSPPLIARFTT
23100

What value of Human Albumin (RLU) has been recorded for this entry: A10V, A35S (designed binder, Variant of B7; not shown: His tag: FN3 domains were purified as His-tagged proteins) MLPAPKNLVVSRVTEDSARLSWTAPDAAFDSFNISYWEPGIGGEAIWLRVPGSERSYDLTGLKPGTEYKVWIHGVKGGASSPPLIARFTT
2950

What value of Human Albumin (RLU) has been recorded for this entry: B7 (designed binder, FN3 domain (Tencon27-based library clone) expressed in E. coli; also called ALB40; not shown: His tag: FN3 domains were purified as His-tagged proteins) MLPAPKNLVASRVTEDSARLSWTAPDAAFDSFNIAYWEPGIGGEAIWLRVPGSERSYDLTGLKPGTEYKVWIHGVKGGASSPPLIARFTT
97400
